# Measurement Target: recombinant human BCAT1 (Homo sapiens, UniProt P54687)
# Sequence (P54687 whole entry): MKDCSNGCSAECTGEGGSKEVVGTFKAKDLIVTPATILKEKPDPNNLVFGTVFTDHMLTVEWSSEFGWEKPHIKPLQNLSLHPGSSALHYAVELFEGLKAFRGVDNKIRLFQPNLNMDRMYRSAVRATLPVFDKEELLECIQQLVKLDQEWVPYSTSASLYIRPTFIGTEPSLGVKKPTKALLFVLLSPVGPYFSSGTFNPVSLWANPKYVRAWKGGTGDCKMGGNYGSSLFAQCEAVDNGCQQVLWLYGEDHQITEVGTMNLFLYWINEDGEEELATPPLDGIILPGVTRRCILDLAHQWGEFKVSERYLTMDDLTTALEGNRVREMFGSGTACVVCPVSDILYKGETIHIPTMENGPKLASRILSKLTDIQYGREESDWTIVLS
# Assay Summary: BCAT1 aminotransferase enzymatic assay (continuous fluorometric)
# Condition Info: 100 ng recombinant protein
Reported Property: IC50

**Q:** Bench note: what IC50 did CC(=O)C(C)CCC(=O)O (stereo not shown) [ERG240] show?
**A:** 0.1 to 1 nM

----------
# Assay Summary: In vivo pharmacokinetics
# Design: species or system ICR mice
# Condition Info: ICR, mouse, plasma; IV 125 mg kg^−1, mice
Reported Property: MRT (min)
Quick reminder: number only, in min, skip the unit.

**Q:** Field request: MRT | item: CC(=O)C(C)CCC(=O)O (stereo not shown)
**A:** 33

----------
# Assay Summary: In vivo pharmacokinetics
# Parameters: species or system ICR mice
# Condition Info: ICR, mouse, plasma; oral 500 mg kg^−1, mice
Reported Property: AUC(0-t) (µg·h/mL)
Hi! Could you send only the number? It should be in µg·h/mL, unit omitted.

**Q:** Fill in: AUC(0-t) of CC(=O)C(C)CCC(=O)O (stereo not shown) [ERG240] is ___
**A:** 794

----------
# Assay Summary: In vivo pharmacokinetics
# Design: species or system ICR mice
# Condition Info: ICR, mouse, plasma; oral 500 mg kg^−1, mice; read-out: F (bioavailability)
Reported Property: bioavailability (%)
Reply numerically in %, unit not repeated.

**Q:** Need bioavailability, item CC(=O)C(C)CCC(=O)O (stereo not shown)
**A:** 100

----------
# Assay Summary: In vivo pharmacokinetics
# Design: species or system ICR mice
# Condition Info: ICR, mouse, plasma; IV 125 mg kg^−1, mice
# Protocol: The experiment was performed by Eurofins Panlabs Inc. Briefly, fasting pharmacokinetic parameters were obtained after administration of 125 mg kg^−1 i.v. or 500 mg kg^−1 p.o ERG240 to ICR mice and blood collection at 3, 10, 30, 60, 120 and 240 min (i.v. dosing) or 10, 30, 60, 120, 240 and 360 min (p.o. dosing). Each animal was subjected to a single blood draw and 3 animals per time point were used. […] B:acetonitrile/water/formic acid 1/99/0.02 (v/v/v)). […] The quantitation range was 5- 10000 ng/mL. […]
Reported Property: C0 (µg/mL)
Give just the numeric value; µg/mL need not be written.

**Q:** Record request: C0 value, item CC(=O)C(C)CCC(=O)O (stereo not shown) [ERG240]
**A:** 231

----------
# Assay Summary: In vivo pharmacokinetics
# Parameters: species or system ICR mice
# Condition Info: ICR, mouse, plasma; oral 500 mg kg^−1, mice
Reported Property: AUC(0-inf) (µg·h/mL)
The answer is to be given in µg·h/mL; state only the numeric part.

**Q:** For the compound CC(=O)C(C)CCC(=O)O (stereo not shown) , what AUC(0-inf) is on record?
**A:** 794

----------
# Assay Summary: In vivo pharmacokinetics
# Parameters: species or system ICR mice
# Condition Info: ICR, mouse, plasma; oral 500 mg kg^−1, mice
Reported Property: MRT (h)
Your answer should be a plain number; it is taken to be in h.

**Q:** Which measured MRT value corresponds to CC(=O)C(C)CCC(=O)O (stereo not shown) [ERG240] ?
**A:** 1.24

----------
# Assay Summary: In vivo pharmacokinetics
# Design: species or system ICR mice
# Condition Info: ICR, mouse, plasma; oral 500 mg kg^−1, mice
Reported Property: Cmax
Write the figure, then the unit, nothing else.

**Q:** // lookup Cmax for CC(=O)C(C)CCC(=O)O (stereo not shown)
**A:** 351 µg/mL
